Format: in vivo, Sprague-Dawley rats
Details: male, Sprague-Dawley, rat, plasma, po, 5 mg/kg, Cmax, Slco1b2 KO male rats, 5 mg/kg p.o., mean ± SD, n = 6
Recorded Endpoint: Cmax (ng/mL)
Answers are plain numbers, in ng/mL.

Data request, read-out Cmax, for O=C(O)C[C@H](O)C[C@H](O)/C=C/c1c(C2CC2)nc2ccccc2c1-c1ccc(F)cc1
1000

###

Format: in vivo, Sprague-Dawley rats
Details: male, Sprague-Dawley, rat, plasma, po, 5 mg/kg, Vd/F, Slco1b2 KO male rats, 5 mg/kg p.o., mean ± SD, n = 6
Recorded Endpoint: Vd/F (L/kg)
Give bare numbers, in L/kg.

Data request, read-out Vd/F, for O=C(O)C[C@H](O)C[C@H](O)/C=C/c1c(C2CC2)nc2ccccc2c1-c1ccc(F)cc1 [pitavastatin, Pitavastatin]
6.58

###

Assay type: in vivo, Sprague-Dawley rats
Details: male, Sprague-Dawley, rat, plasma, po, 5 mg/kg, AUC0–inf, Slco1b2 KO male rats, 5 mg/kg p.o., mean ± SD, n = 6
Recorded Endpoint: AUC(0-inf) (ng·h/mL)
Answers are plain numbers, in ng·h/mL.

Data request, read-out AUC(0-inf), for O=C(O)C[C@H](O)C[C@H](O)/C=C/c1c(C2CC2)nc2ccccc2c1-c1ccc(F)cc1
3440

###

Type: in vivo, Sprague-Dawley rats
Details: male, Sprague-Dawley, rat, plasma, po, 5 mg/kg, AUC0–t, Slco1b2 KO male rats, 5 mg/kg p.o., mean ± SD, n = 6
Recorded Endpoint: AUC(0-t) (ng·h/mL)
Give bare numbers, in ng·h/mL.

Data request, read-out AUC(0-t), for O=C(O)C[C@H](O)C[C@H](O)/C=C/c1c(C2CC2)nc2ccccc2c1-c1ccc(F)cc1 [pitavastatin, Pitavastatin]
3410

###

Type: in vivo, Sprague-Dawley rats
Details: male, Sprague-Dawley, rat, plasma, po, 5 mg/kg, CL/F, Slco1b2 KO male rats, 5 mg/kg p.o., mean ± SD, n = 6
Recorded Endpoint: CL/F
// unit must come after the numeric part

Data request, read-out CL/F, for O=C(O)C[C@H](O)C[C@H](O)/C=C/c1c(C2CC2)nc2ccccc2c1-c1ccc(F)cc1 [pitavastatin, Pitavastatin]
26 mL/min/kg
